Molecular target: biotin-labeled SARS-COV-2 RBD domain (SARS-CoV-2, UniProt P0DTC2 319-541)
Experiment: SPR, Biacore T200, biotin-RBD on SA chip, antibody as analyte
pKd: −log10 of the molar value.
Recorded pKd, one value per entry.

Challenge: Item ABU-365 (antibody, V domains shown) VH: EVQLVESGGGLIQPGGSLRLSCAASGVTVSSNYMSWVRQAPGKGLEWVSLIYSGGSTYYADSVKGRFTISRDNSKNTLYLQMNSLRAEDTAVYYCARPIVGARSGMDVWGQGTTVTVSS VL: DIQMTQSPSSLSASVGDRVTITCQASQDINNYLNWYQQKPGKAPKLLIYDASNLETGVPSRFSGSGSGTDFTFIISSLQPEDIATYYCQQHDNLPVTFGGGTKVEIK has what recorded pKd?
Response given: > 8.00

Challenge: Item ABU-181 (antibody, V domains shown) VH: QVQLQESGPGLVKPSQTLSLICTVSDDSISSGSYYWSWIRQPAGKGLEWIGRIYAGESTNYNPSLKSRVIISVDTSKKQFSLRLSSVTAADTAVYYCARGAVVTPFGLDSWGQGTLVTVSS VL: SYELTQPPSVSVSPGQTARITCSGDALPKQYAYWYQQKTGQAPVLVIYKDSERPSGIPERVSGSSSGTTVTLTISGVQAEDEADYYCQSADSSGTWVFGGGTKLTVL has what recorded pKd?
Response given: > 8.00

Kindly review the next binder as well.
Challenge: Item ABU-386 (antibody, V domains shown) VH: EVQLVESGGGLVQPGGSLRLSCAASGVTVSSNYMSWVRQAPGKGLEWVSAVYSGGSTYYADSVKGRFTISRHNSKNTLYLQMKSLRPEDTAIYYCARLINHYYDSSGDGGAFDIWGQGTMVTVSS VL: QSALTQPASVSGSPGQSITISCTGTSSDVGSYNLVSWYQQRPGKAPKLILYEVTKRPSGVSNRFSGSKSGNTASLAISGLQAEDEADYYCCSYAGSSTWVFGGGTKLTVL has what recorded pKd?
Response given: > 8.00

The measurements presented in this section are drawn from patent US20230183322A1.
